target: Protein cereblon/Interleukin-1 receptor-associated kinase 4 (Homo sapiens, UniProt Q96SW2+Q9NWZ3); test: Binding affinity to CRBN/IRAK4 in human PBMC cells assessed as inhibition of R848-stimulated IL-6 production incubated for 24 hrs by MSD analysis; format: cell-based
Sequence (Q9NWZ3 whole entry): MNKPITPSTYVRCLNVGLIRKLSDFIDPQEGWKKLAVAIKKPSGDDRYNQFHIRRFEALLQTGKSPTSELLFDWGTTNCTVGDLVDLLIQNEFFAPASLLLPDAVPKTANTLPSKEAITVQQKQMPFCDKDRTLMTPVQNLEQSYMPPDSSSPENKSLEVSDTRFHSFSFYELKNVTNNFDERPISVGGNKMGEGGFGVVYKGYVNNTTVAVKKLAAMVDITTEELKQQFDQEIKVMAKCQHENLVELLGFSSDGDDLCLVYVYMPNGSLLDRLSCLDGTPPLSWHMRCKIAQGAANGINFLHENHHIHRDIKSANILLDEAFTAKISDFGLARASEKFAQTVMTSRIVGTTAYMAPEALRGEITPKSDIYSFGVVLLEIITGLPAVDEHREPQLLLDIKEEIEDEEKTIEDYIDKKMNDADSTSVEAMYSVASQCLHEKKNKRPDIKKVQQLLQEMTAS
Sequence (Q96SW2 whole entry): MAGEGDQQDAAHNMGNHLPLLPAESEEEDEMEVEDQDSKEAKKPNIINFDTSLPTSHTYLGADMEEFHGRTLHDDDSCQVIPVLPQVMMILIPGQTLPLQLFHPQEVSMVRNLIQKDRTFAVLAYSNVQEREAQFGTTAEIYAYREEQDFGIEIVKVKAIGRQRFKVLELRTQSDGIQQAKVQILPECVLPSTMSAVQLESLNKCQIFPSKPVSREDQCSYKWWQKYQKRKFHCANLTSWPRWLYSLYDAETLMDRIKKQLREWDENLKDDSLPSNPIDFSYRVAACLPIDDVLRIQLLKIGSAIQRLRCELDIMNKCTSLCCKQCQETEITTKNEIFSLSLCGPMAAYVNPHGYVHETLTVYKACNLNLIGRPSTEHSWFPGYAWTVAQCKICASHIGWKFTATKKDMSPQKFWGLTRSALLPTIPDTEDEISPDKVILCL
pIC50: −log10 of the molar value.
measure_name: pIC50

Sample answers from the record:
O=C1CCC(N2Cc3ccc(N4CC(F)(CN5CCC(N6Cc7cc(NC(=O)c8cnn9cccnc89)c(N8CCC(N9CCC9)CC8)cc7C6=O)CC5)C4)cc3C2=O)C(=O)N1 (stereo not drawn)
> 8.00
O=C1CCC(N2Cc3ccc(N4CCC(CN5CCC(N6Cc7cc(NC(=O)c8cnn9cccnc89)c(N8CCC(N9CCC9)CC8)cc7C6=O)CC5)CC4)cc3C2=O)C(=O)N1 (stereo not drawn)
> 8.00

Shift focus to the following entry.
Would you kindly share the measured pIC50 for O=C1CCC(N2Cc3ccc(N4CCC(CN5CCC(n6cc7cc(NC(=O)c8cnn9cccnc89)c(OCC8CC8)cc7n6)CC5)CC4)cc3C2=O)C(=O)N1 (stereo not drawn) ?
> 8.00

----------
Reported Emax values for the following compounds.
target: Protein cereblon/Interleukin-1 receptor-associated kinase 4 (Homo sapiens) (UniProt Q9NWZ3+Q96SW2); test: Binding affinity to CRBN/IRAK4 in human PBMC cells assessed as inhibition of LPS-stimulated IL-6 production by measuring maximal efficacy incubated for 24 hrs by MSD analysis relative to control; assay type: cell-based

A selection of reference data follows.
O=C1CCC(N2Cc3cc(N4CCC(CN5CCC(N6Cc7cc(NC(=O)c8cnn9cccnc89)c(N8CCC(N9CCC9)CC8)cc7C6=O)CC5)CC4)ccc3C2=O)C(=O)N1 (stereo not drawn)
> 90%
O=C1CCC(N2C(=O)c3ccc(N4CCC(CN5CCC(N6Cc7cc(NC(=O)c8cnn9cccnc89)c(N8CCN(CC(F)F)CC8)cc7C6=O)CC5)CC4)cc3C2=O)C(=O)N1 (stereo not drawn)
80%

Could you tell me which Emax is on file for CC(C)Oc1cc2c(cc1NC(=O)c1cnn3cccnc13)CN(C1CCN(C(C)(C)C3CN(c4ccc5c(c4)C(=O)N(C4CCC(=O)NC4=O)C5=O)C3)CC1)C2=O (stereo not drawn) ?
> 90%

----------
molecular target: Protein cereblon/Interleukin-1 receptor-associated kinase 4 (Homo sapiens, UniProt Q96SW2+Q9NWZ3); assay: Binding affinity to CRBN/IRAK4 in human PBMC cells assessed as inhibition of R848-stimulated IL-6 production incubated for 24 hrs by MSD analysis; type: cell-based
pIC50: −log10 of the molar value.
# pIC50 annotations

CC(C)Oc1cc2c(cc1NC(=O)c1cnn3cccnc13)CN(C1CCN(CC3(F)CN(c4ccc5c(c4F)CN(C4CCC(=O)NC4=O)C5=O)C3)CC1)C2=O (configuration not stated)
≤ 7.30
O=C1CCC(N2Cc3cc(N4CCC(CN5CCC(N6Cc7cc(NC(=O)c8cnn9cccnc89)c(N8CCC(N9CCC9)CC8)cc7C6=O)CC5)CC4)ccc3C2=O)C(=O)N1 (configuration not stated)
> 8.00
CC(C)Oc1cc2c(cc1NC(=O)c1cnn3cccnc13)CN(C1CCN(C(C)(C)C3CN(c4ccc5c(c4)C(=O)N(C4CCC(=O)NC4=O)C5=O)C3)CC1)C2=O (configuration not stated)
≤ 8.00

Name the recorded pIC50 for O=C1CCC(N2Cc3c(ccc(N4CCC(CN5CCC(n6cc7cc(NC(=O)c8cnn9cccnc89)c(N8CCN(CC(F)F)CC8)cc7n6)CC5)CC4)c3F)C2=O)C(=O)N1 (configuration not stated) .
> 8.00

Can you check CC(C)Oc1cc2c(cc1NC(=O)c1cnn3cccnc13)CN(C1CCN(CC3CCN(c4ccc5c(c4)C(=O)N(C4CCC(=O)NC4=O)C5=O)CC3)CC1)C2=O (configuration not stated) next?
> 8.00

Next up: O=C1CCC(N2Cc3cc(N4CCC(CN5CCC(n6cc7cc(NC(=O)c8cnn9cccnc89)c(OCC(F)F)cc7n6)CC5)CC4)ccc3C2=O)C(=O)N1 (configuration not stated)
> 8.00

Item: O=C1CCC(N2C(=O)c3ccc(N4CCC(CN5CCC(N6Cc7cc(NC(=O)c8cnn9cccnc89)c(N8CCN(CC(F)F)CC8)cc7C6=O)CC5)CC4)cc3C2=O)C(=O)N1 (configuration not stated)
≤ 8.00
